test_name: Inhibition of bovine brain tubulin polymerization by turbidity assay
Design: species or system Bos taurus
Below, each of the compounds is paired with its reported IC50 value.
assay_readout: IC50 (nM)

> print(dat)
                                smiles.repr  units.symbol  measured.result
1  COc1cc([C@@H]2c3cc4c(cc3[C@H](O)[C@H]3COC(=O)[C@H]23)OCO4)cc(OC)c1OC            nM              600
2  COc1cc(-c2c3c(cc4cc5c(cc24)OCO5)COC3=O)cc2c1OCO2            nM             5000
3  COc1cc([C@@H]2c3cc4c(cc3C[C@H]3COC(=O)[C@@H]32)OCO4)cc2c1OCO2            nM              800
4  COc1cc([C@@H]2c3cc4c(cc3C[C@H]3COC(=O)[C@H]32)OCO4)cc2c1OCO2            nM            40000
